# Read-out: glucuronosyltransferase (UGT1A1), UGT1A1 (gene 54658)
# assayInfo: CLD_UGT1A1_24hr: CellzDirect (CLD) Gene Expression Assay for glucuronosyltransferase (UGT1A1) at 24 hours (AID 2283696)
Results filed as inconclusive are left out. Activity calls are given as the source filed them. How the source made its calls: active means hit-call score of the fitted dose curve at least 0.9, where 1 is the maximum; inconclusive means response in the unintended direction; inactive means score below 0.9.
Assign a class; possible classes are active, inactive

# compound, category
measured = [
    ("c1ccc(Nc2ccccc2)cc1", "inactive"),
]

Called result for CCCN(CCC)c1c([N+](=O)[O-])cc(C(F)(F)F)c(N)c1[N+](=O)[O-]
active

// outcome(item) with item = C#CCOC(=O)[C@@H](C)Oc1ccc(Oc2ncc(Cl)cc2F)cc1
inactive

How was CCOC(=O)NCCOc1ccc(Oc2ccccc2)cc1 classified in this test?
inactive

Could you kindly confirm the outcome this assay logged for CCCCOCCOCCOCc1cc2c(cc1CCC)OCO2 ?
inactive

Which result was noted for this compound in the test: CCN(CC)C(=O)c1cccc(C)c1
inactive

# fetch the recorded call for CCOC(=O)C(C)Oc1ccc(Oc2nc3ccc(Cl)cc3o2)cc1 (configuration not stated) here
inactive

Status in this test for CCCCCOC(=O)COc1cc(N2C(=O)C3=C(CCCC3)C2=O)c(F)cc1Cl ?
inactive

Called result for CC(C)(C)[C@@H](O)[C@@H](Cc1ccc(Cl)cc1)n1cncn1
inactive

Hi team, can someone confirm the assay call for N#CSCSc1nc2ccccc2s1 ?
inactive

Hi, sorry to bother you, what did the test record for CCOC(=O)[C@H](C)Oc1ccc(Oc2nc3ccc(Cl)cc3o2)cc1 ?
inactive

Hello, I am checking results. What call was entered for CCCCOC(=O)[C@@H](C)Oc1ccc(Oc2ccc(C(F)(F)F)cn2)cc1 ?
inactive

# outcome recorded in this test, key = O=C(O)C1(C(=O)Nc2ccc(Cl)cc2Cl)CC1
active

----------
# Read-out: Cyclin D1 (CCND1), CCND1 (gene 595)
# assayInfo: LTEA_HepaRG_CCND1: Life Technologies and Expression Analysis (LTEA) Assay for Cyclin D1 (CCND1) using HepaRG (AID 2283451)
# statedConditions: mRNA level, 48 h; actives raise or lower the signal
The source made the active and inactive calls. The calls were made as follows: active = hit-call score of the fitted dose curve at least 0.9, where 1 is the maximum; inactive = score below 0.9.
// allowed return values: yes (active), no (inactive)

# count of solved cases: 2
# compound, category
measured = [
    ("CCOC(=O)C(C)Oc1ccc(Oc2nc3ccc(Cl)cc3o2)cc1 (stereo unspecified)", "no"),
    ("CC(=O)S[C@@H]1CC2=CC(=O)CC[C@]2(C)[C@H]2CC[C@@]3(C)[C@@H](CC[C@@]34CCC(=O)O4)[C@H]12", "no"),
]

Hi team, can someone confirm the assay call for CCSC(=O)N(CC(C)C)CC(C)C ?
no

What did this assay record as the result for CCCCOC(=O)C(C)Oc1ccc(Oc2ccc(C(F)(F)F)cn2)cc1 (stereo unspecified) ?
no

Dear all, I need the recorded test outcome for c1ccc(Nc2ccccc2)cc1 , thank you.
no

Which outcome did this test record for the compound CCCCC(CC)COC(=O)c1ccccc1C(=O)O (stereo unspecified) ?
no

----------
# Read-out: Forkhead box O3 (FOXO3), FOXO3 (gene 2309)
# assayInfo: LTEA_HepaRG_FOXO3: Life Technologies and Expression Analysis (LTEA) Assay for Forkhead box O3 (FOXO3) using HepaRG (AID 2283459)
# statedConditions: mRNA level, 48 h; actives raise or lower the signal
# Procedure: LTEA_HepaRG is a cell based, multiplexed-readout assay that uses HepaRG, a human liver cell line, with measurements taken at 48 hours after chemical dosing on a 96-well plate.LTEA_HepaRG_FOXO3 is one of 102 assay component(s) measured in the LTEA HepaRG cell culture assay. It is a marker of Cell proliferation, survival, death.Data from the assay component LTEA_HepaRG_FOXO3 was analyzed into 1 endpoint. […]
Calls of active or inactive are those of the source. The calls were made as follows: active = hit-call score of the fitted dose curve at least 0.9, where 1 is the maximum; inactive = score below 0.9.
Could you please pick one outcome from this set? active, inactive

Would you please look over these solved cases?
# molecule, category
rows = [
    ("CCOC(=O)C(C)Oc1ccc(Oc2nc3ccc(Cl)cc3o2)cc1 (stereo unspecified)", "inactive"),
    ("C[C@]12CC[C@@H]3c4ccc(O)cc4C[C@@H](CCCCCCCCCS(=O)CCCC(F)(F)C(F)(F)F)[C@H]3[C@@H]1CC[C@@H]2O (stereo partly specified)", "inactive"),
    ("CCCCOC(=O)C(C)Oc1ccc(Oc2ccc(C(F)(F)F)cn2)cc1 (stereo unspecified)", "inactive"),
    ("S=C([S-])NCCNC(=S)[S-].[Mn+2]", "active"),
    ("CCC(C)OC(=O)N1CCCCC1CCO (stereo unspecified)", "inactive"),
]

Okay, now this molecule:
Hi, do you know how O=C(Nc1ccc([N+](=O)[O-])cc1Cl)c1cc(Cl)ccc1O came out in this test?
inactive

----------
# Read-out: Bcl-2 (BID) gene, BID (gene 637)
# assayInfo: LTEA_HepaRG_BID: Life Technologies and Expression Analysis (LTEA) Assay for Bcl-2 (BID) gene using HepaRG (AID 2283476)
# statedConditions: mRNA level, 48 h; actives raise or lower the signal
# Method: LTEA_HepaRG is a cell based, multiplexed-readout assay that uses HepaRG, a human liver cell line, with measurements taken at 48 hours after chemical dosing on a 96-well plate.LTEA_HepaRG_BID is one of 102 assay component(s) measured in the LTEA HepaRG cell culture assay. It is a marker of Cell proliferation, survival, death.Data from the assay component LTEA_HepaRG_BID was analyzed into 1 endpoint. […]
The source made the active and inactive calls. The calls were made as follows: active = hit-call score of the fitted dose curve at least 0.9, where 1 is the maximum; inactive = score below 0.9.
The reply should name one outcome from YES for active, NO for inactive

# compound, category
rows = [
    ("CC(=O)S[C@@H]1CC2=CC(=O)CC[C@]2(C)[C@H]2CC[C@@]3(C)[C@@H](CC[C@@]34CCC(=O)O4)[C@H]12", "NO"),
    ("CCN(CC)C(=O)c1cccc(C)c1", "NO"),
    ("CN(C)C(=O)Nc1ccc(Cl)c(Cl)c1", "NO"),
]

State the result this test recorded for c1ccc2[nH]c(-c3cscn3)nc2c1 .
NO

Status in this test for CC1(C)C(C=C(Cl)Cl)C1C(=O)OCc1cccc(Oc2ccccc2)c1 (configuration not stated) ?
NO

Query: recorded result category for Oc1ccc(C(c2ccc(O)cc2)C(Cl)(Cl)Cl)cc1 in this test
YES

Short answer needed: outcome of this test for CC(=O)[C@H]1CC[C@H]2[C@@H]3CCC4=CC(=O)CC[C@]4(C)[C@H]3CC[C@]12C ?
NO

Could you kindly confirm the outcome this assay logged for CCCN(CCC)c1c([N+](=O)[O-])cc(C(F)(F)F)c(N)c1[N+](=O)[O-] ?
NO

# outcome recorded in this test, key = CCOC(=O)C(C)Oc1ccc(Oc2nc3ccc(Cl)cc3o2)cc1 (configuration not stated)
NO

----------
# Read-out: Tumor necrosis factor receptor superfamily member 6 (Homo sapiens) (UniProt P25445)
# assayInfo: LTEA_HepaRG_FAS: Life Technologies and Expression Analysis (LTEA) Assay for Fas cell surface death receptor (FAS) using HepaRG (AID 2283447)
# statedConditions: mRNA level, 48 h; actives raise or lower the signal
Calls of active or inactive are those of the source. The calls were made as follows: active = hit-call score of the fitted dose curve at least 0.9, where 1 is the maximum; inactive = score below 0.9.
// one of class 1 = active, class 0 = inactive, no free text

Which outcome was entered for the compound C#CCOC(=O)[C@@H](C)Oc1ccc(Oc2ncc(Cl)cc2F)cc1 in this test?
class 0

----------
# Test system: Sodium/Iodide Symporter (NIS), SLC5A5 (gene 6528)
# assayInfo: CPHEA_Stoker_NIS_Inhibition_RAIU: CPHEA's Radioactive Iodide Uptake (RAIU) Assay for Sodium/Iodide Symporter (NIS) Inhibition, Stoker and Laws Labs (AID 2283841)
# Description: CPHEA_Stoker_NIS is a cell-based, single-readout assay that uses hNIS-HEK293T-EPA, a novel human kidney cell line expressing human NIS, with measurements taken at 2 hours after chemical dosing in a 96-well plate. […] A parallel cytoxicity assay (Cell Titer Glo, Promega) was also run in the same cell line.CPHEA_Stoker_NIS_Inhibition_RAIU is one of 2 assay components measured from the CPHEA_Stoker_NIS assay. […]
Records with an inconclusive call do not appear. The source made the active and inactive calls. Rule for the calls: active = hit-call score of the fitted dose curve at least 0.9, where 1 is the maximum; inconclusive = response in the unintended direction; inactive = score below 0.9.
measureName: AC50

Sample answers from the record:
# compound, AC50
data = [
    ("CCCCCOC(=O)COc1cc(N2C(=O)C3=C(CCCC3)C2=O)c(F)cc1Cl", "inactive"),
    ("Oc1ccc(C(c2ccc(O)cc2)C(Cl)(Cl)Cl)cc1", "50 µM (active)"),
    ("S=C(S)NCCNC(=S)S.[Mn+2].[S-]C([S-])=NCCN=C([S-])[S-].[Zn+2]", "inactive"),
    ("CCOC(=O)COc1cc(-n2ncc(C(F)(F)F)c(C)c2=O)c(F)cc1Cl", "inactive"),
    ("O=C(Nc1ccc([N+](=O)[O-])cc1Cl)c1cc(Cl)ccc1O", "0.111 µM (active)"),
]

State the recorded AC50 for this entry: CC(C)(c1ccc(O)cc1)c1ccc(O)cc1
inactive

Record request: AC50 value, item CCCCOCCOCCOCc1cc2c(cc1CCC)OCO2
inactive

What does the record list as AC50 for CCCCC(CC)CN1C(=O)C2C3C=CC(C3)C2C1=O (stereo not drawn) ?
inactive
